Test system: HEK-293T
test.summary: Incucyte cell viability with HEK293T; also: unitless GR value; below 1 slowed growth and below 0 cell loss
Assay type: toxicity, cell-based
setup.conditions: human, 24 h, 10 µM, compound concentration 10 uM, replicate number 1, timepoint 24 hours
Where a SMILES comes first, the peptide text is derived from it. [ ]: non-standard residue; d: D form. Arg(Me) = CNC(=N)NCCC[C@H](N)C(=O)O; d3Pal = N[C@H](Cc1cccnc1)C(=O)O; azaGly = NNC(=O)O
measure.name: Growth Rate
The answer should be written as a number, with no unit following it.

In the examples that follow, each entry is paired with its recorded Growth Rate.
compound: Cl.O=C(O)c1cc(-c2ccc(C3CCNCC3)cc2)c2ccc(-c3ccc(C(F)(F)F)cc3)cc2c1
assay.target: HEK-293T
measure.name: Growth Rate
measured.number: 0.2
//
compound: Cc1nc2ccc(Oc3ccc(F)cc3)cc2c(=O)n1C[C@H]1CCCN(C(C)C)C1.Cl
assay.target: HEK-293T
measure.name: Growth Rate
measured.number: -0.2
//
compound: NC(=O)c1ccc(CNC(=O)NC[C@H]2CN(Cc3ccc(Cl)c(Cl)c3)CCO2)cc1
assay.target: HEK-293T
measure.name: Growth Rate
measured.number: 0.88

Qu. Please look up its Growth Rate: CNC(=N)NCCC[C@H](NC(=O)[C@H](CC(C)C)NC(=O)NNC(=O)[C@H](Cc1ccccc1)NC(=O)[C@H](CO)NC(=O)[C@H](CC(N)=O)NC(=O)[C@@H](Cc1cccnc1)NC(=O)[C@H](N)Cc1ccc(O)cc1)C(=O)NCC(N)=O [KISS1-543] (H-[dY][d3Pal]NSF[azaGly]L[Arg(Me)]G-NH2)
Ans. 0.71

Qu. Look up Growth Rate for this compound: CN(C)CCCc1cc(C(=O)Nc2ccc(-c3ccncc3)cc2)ccc1O.Cl.Cl
Ans. 0.67

Qu. # get_value(readout='Growth Rate', item= CNCCN1CCC(c2cc(CN(C)C(=O)c3cccc(Oc4ccccc4)c3)ccn2)CC1 )
Ans. 1

Qu. Suppose we examine the compound CN(C)C(=O)Cn1cc(-c2ccc(-c3nnc4ccccn34)cc2)cn1 ; what Growth Rate value has been reported?
Ans. 0.78

Qu. So what does the record say about Growth Rate for OCc1cc(C(O)CNCCCCCCOCCCCc2ccccc2)ccc1O (centres undefined) ?
Ans. 0.7

Qu. Param item = CCCCC(=O)N(Cc1ccc(-c2ccccc2-c2nnn[nH]2)cc1)[C@H](C(=O)O)C(C)C ; retrieve measured Growth Rate.
Ans. 0.8
